Where these numbers come from: PubChem BioAssay

Test: basal S. cerevisiae growth modulation, no modifier, primary screen, OD600, strain BY4716, 24 h, basal condition (AID 1173)
Settings: OD600, 24 h, higher = more signal, called active from +8 up or from −8 down
Assign a class from recorded z-score; defined classes: low class: < -0.6; middle class: ≥ -0.6 and < 0.5; high class: ≥ 0.5

Request: Hello team, could you let me know which band the following compound falls into: COCC(=C=CC[C@@H](O)c1ccc(CO)o1)CCO
Response: low class

Request: GET /class?item= O=C1C2C=CC(C(O)c3ccc(F)cc3)N(Nc3ccccc3)C2C(=O)N1c1ccccc1 (centres undefined)
Response: low class

###

Experiment: basal RPMI8226 mitochondrial membrane potential changes, profiling panel, cell-based, JC-1 fluorescence, 24 h, 100 nL compound (AID 1169); further: test concentration not given here
Details: RPMI8226 myeloma, JC-1 mitochondrial potential fluorescence, higher = more signal
Please mark Fulfilled if the recorded z-score is equal to or greater than -0.7, and Not fulfilled if it falls below.

Request: Confirm if z-score reported for the compound COCCOC(=O)N1C(=O)[C@@]2(c3cc(C#CC4=CCCCC4)ccc31)[C@H](C(=O)NC[C@H](O)c1ccccc1)[C@H]1C(=O)O[C@H](c3ccccc3)[C@H](c3ccccc3)N1[C@@H]2c1ccc(O)cc1 is -0.7 or above.
Response: Fulfilled

Request: Record O=C1O[C@H](c2ccccc2)[C@H](c2ccccc2)N2[C@H]1[C@@H](C(=O)Nc1nc3ccccc3s1)[C@]1(C(=O)Nc3ccccc31)[C@H]2c1ccc(O)cc1 ; criterion: z-score no lower than -0.7. Met?
Response: Not fulfilled

Request: Dear colleague, could you confirm whether COC(=O)[C@@]1(Cc2ccccc2)[C@H]2c3cc(C(=O)N(C)C)n(Cc4cc(C)n(C)n4)c3C[C@H]2CN1C(=O)c1ccccc1 has z-score at or above -0.7?
Response: Fulfilled

Request: Decide: is the reported value of z-score for Cc1ccc([C@H]2[C@H](C(=O)O)[C@H](Sc3ccccc3)[C@@H](C(C)C)N2S(=O)(=O)c2ccc(C)cc2)cc1 equal to or greater than -0.7?
Response: Fulfilled

Request: Decide: is the reported value of z-score for COC(=O)c1ccc(OC)c(/C=C\CC(OC(C)=O)c2ccccc2)c1 (stereo unspecified) equal to or greater than -0.7?
Response: Fulfilled

Request: Could you tell me if the measured z-score of NC(=O)NCC#Cc1ccc2c(c1)[C@]1(C(=O)N2)[C@H](C(=O)NC[C@H](O)c2ccccc2)[C@H]2C(=O)O[C@H](c3ccccc3)[C@H](c3ccccc3)N2[C@@H]1c1ccc(O)cc1 reaches -0.7 or more?
Response: Not fulfilled

###

Test: basal S. cerevisiae growth modulation, no modifier, primary screen, OD600, strain BY4716, 24 h, basal condition (AID 1173)
Settings: OD600, 24 h, higher = more signal, called active from +8 up or from −8 down
MEASURED_ATTRIBUTE: z-score
Give bare numbers.

Batch of 5 compounds: report z-score for each.
1. CCCCC=C[C@@H](NC(=O)c1ccco1)c1ccccc1
2. CCOC(=O)C[C@H]1[C@H](OC(=O)c2ccccc2-c2ccccc2)[C@@H](NC(=O)Cc2ccc(OC)cc2)c2cc(OCCCO)ccc2N1C(=O)c1ccccc1
3. C=CC[C@@]1(C(=O)NCC(O)CO)N=C(c2ccc(OCCCO)cc2)O[C@@H]1c1ccccc1N=[N+]=[N-] (some centres not stated)
4. Cc1ccc([C@H]2[C@H](C(=O)O)[C@H](Sc3ccccc3)[C@@H](C(C)C)N2S(=O)(=O)c2ccc(C)cc2)cc1
5. COc1ccc(C#Cc2ccc3c(c2)[C@]2(C(=O)N3)[C@H](C(=O)NC[C@H](O)c3ccccc3)[C@H]3C(=O)O[C@H](c4ccccc4)[C@H](c4ccccc4)N3[C@@H]2c2ccc(OCCO)cc2)cc1

Response:
1: 1.42; 2: 0.728; 3: -0.965; 4: -0.138; 5: 2.22

# batch: return z-score for each of the 2 compounds below
1. CC=CC(O)C1C=CC2C(=O)N(c3ccccc3)C(=O)C2N1Nc1ccc(C(C)C)cc1 (configuration not stated)
2. CN(C)C(=O)[C@@]1(CCC(=O)OC(C)(C)C)N=C(c2ccc(OCCCO)cc2)O[C@H]1c1ccccc1

Response:
[0.474, -0.757]
